- SYSTEM_TESTED: NLRP3 inflammasome (Mus musculus, UniProt Q8R4B8)
- Construct: bone marrow-derived macrophages (BMDMs) from wild type (WT) mice first primed with 1 μg/ml lipopolysaccharide (LPS); endogenous in cells; host or cells: primary BMDMs from wild type mice
- Sequence (Q8R4B8 whole entry): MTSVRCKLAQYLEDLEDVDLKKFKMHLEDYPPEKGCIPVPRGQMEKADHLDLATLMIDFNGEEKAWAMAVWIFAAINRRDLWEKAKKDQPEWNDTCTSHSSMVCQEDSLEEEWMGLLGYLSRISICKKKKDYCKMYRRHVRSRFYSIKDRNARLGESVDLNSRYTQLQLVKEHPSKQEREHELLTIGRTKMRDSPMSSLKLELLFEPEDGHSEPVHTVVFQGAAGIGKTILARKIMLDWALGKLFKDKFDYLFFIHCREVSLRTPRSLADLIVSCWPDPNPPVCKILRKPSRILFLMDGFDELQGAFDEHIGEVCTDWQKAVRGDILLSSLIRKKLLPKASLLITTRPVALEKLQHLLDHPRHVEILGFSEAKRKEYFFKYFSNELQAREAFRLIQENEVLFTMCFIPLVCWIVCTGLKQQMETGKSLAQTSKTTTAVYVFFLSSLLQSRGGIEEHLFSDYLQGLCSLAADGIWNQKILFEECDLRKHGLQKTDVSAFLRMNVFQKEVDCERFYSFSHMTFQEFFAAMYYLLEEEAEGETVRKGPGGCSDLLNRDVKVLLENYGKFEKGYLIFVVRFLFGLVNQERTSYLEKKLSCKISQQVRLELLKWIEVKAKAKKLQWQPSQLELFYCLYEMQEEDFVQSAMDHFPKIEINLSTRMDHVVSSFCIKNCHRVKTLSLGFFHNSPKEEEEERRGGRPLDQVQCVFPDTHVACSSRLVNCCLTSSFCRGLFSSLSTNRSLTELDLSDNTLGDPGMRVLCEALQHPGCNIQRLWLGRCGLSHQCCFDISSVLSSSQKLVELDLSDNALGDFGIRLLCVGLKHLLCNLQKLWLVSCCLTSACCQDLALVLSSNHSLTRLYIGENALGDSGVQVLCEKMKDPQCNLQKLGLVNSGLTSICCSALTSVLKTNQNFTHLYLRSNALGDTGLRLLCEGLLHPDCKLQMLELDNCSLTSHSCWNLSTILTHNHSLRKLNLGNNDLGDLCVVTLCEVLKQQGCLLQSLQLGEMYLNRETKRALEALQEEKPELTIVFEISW
- MEASUREMENT_PROTOCOL: Inhibition of NLRP3-mediated IL-1β release in BMDMs (LPS + Bz-ATP), ELISA
- Type: cell-based
- CONDITION_CONTEXT: BMDM; BMDMs from WT mice, LPS + BzATP, compound at 1 μM; read-out: Inhibitory rate of IL-1β release
Measured inhibition at 1 µM values are reported for all entries that follow.
Reply with just the number (in %).

>>> test_result("C[C@H](NS(=O)(=O)c1ccc(N)cc1)C(=O)Nc1c2c(cc3c1CCC3)CCC2 [Compound 7b of Formula (III)]")
17.3

Summary line: Nc1ccc(S(=O)(=O)N[C@H](C(=O)Nc2c3c(cc4c2CCC4)CCC3)c2ccccc2)cc1 [Compound 7f of Formula (III)] , NLRP3 inflammasome (Mus musculus, UniProt Q8R4B8), reported inhibition at 1 µM = 16.1

Entry CC(C)C[C@H](NS(=O)(=O)c1ccc([N+](=O)[O-])cc1)C(=O)Nc1c2c(cc3c1CCC3)CCC2 [Compound 6e of Formula (III)] : inhibition at 1 µM on NLRP3 inflammasome (Mus musculus, UniProt Q8R4B8) = 53.9

---

- SYSTEM_TESTED: NLRP3 inflammasome (Mus musculus, UniProt Q8R4B8)
- Construct: bone marrow-derived macrophages (BMDMs) from wild type (WT) mice first primed with 1 μg/ml lipopolysaccharide (LPS); endogenous in cells; host or cells: primary BMDMs from wild type mice
- MEASUREMENT_PROTOCOL: Inhibition of NLRP3-mediated IL-1β release in BMDMs (LPS + Bz-ATP), ELISA
- Type: cell-based
- CONDITION_CONTEXT: BMDM; BMDMs from WT mice, LPS + BzATP, compound at 1 μM; read-out: Inhibitory rate of IL-1β release
Cut-off 40% on inhibition at 1 µM, inclusive. At or above means Yes; below means No.

Recorded results for 5 compounds are shown here.
>>> assigned_class("Nc1ccc(S(=O)(=O)N2CCCC2C(=O)Nc2c3c(cc4c2CCC4)CCC3)cc1 (stereo not drawn)")
"Yes"
>>> assigned_class("NCCCC[C@H](NS(=O)(=O)c1ccc([N+](=O)[O-])cc1)C(=O)Nc1c2c(cc3c1CCC3)CCC2")
"Yes"
>>> assigned_class("O=C(Nc1c2c(cc3c1CCC3)CCC2)C1CCCCN1S(=O)(=O)c1ccc([N+](=O)[O-])cc1 (stereo not drawn)")
"Yes"
>>> assigned_class("Nc1ccc(S(=O)(=O)N2CCCCC2C(=O)Nc2c3c(cc4c2CCC4)CCC3)cc1 (stereo not drawn)")
"No"
>>> assigned_class("CC(C)C[C@H](NS(=O)(=O)c1ccc(N)cc1)C(=O)Nc1c2c(cc3c1CCC3)CCC2")
"No"

Challenge: Identify whether the reported inhibition at 1 µM of the following compound is 40% or greater: O=C(Nc1c2c(cc3c1CCC3)CCC2)[C@@H](NS(=O)(=O)c1ccc([N+](=O)[O-])cc1)c1ccccc1
Response given: Yes

---

- SYSTEM_TESTED: NLRP3 inflammasome (Mus musculus, UniProt Q8R4B8)
- Construct: bone marrow-derived macrophages (BMDMs) from wild type (WT) mice first primed with 1 μg/ml lipopolysaccharide (LPS); endogenous in cells; host or cells: primary BMDMs from wild type mice
- MEASUREMENT_PROTOCOL: Inhibition of NLRP3-mediated IL-1β release in BMDMs (LPS + Bz-ATP), ELISA
- Format: cell-based
- CONDITION_CONTEXT: BMDM; BMDMs from WT mice, LPS + BzATP, compound at 1 μM; read-out: Inhibitory rate of IL-1β release
READOUT_TYPE: inhibition at 1 µM (%)
The reply should contain only the number, in %.

The recorded inhibition at 1 µM for NCCCC[C@H](NS(=O)(=O)c1ccc(N)cc1)C(=O)Nc1c2c(cc3c1CCC3)CCC2 is 28.4

Cited source for all entries: patent US20250289810A1
